Each recorded value in this set is attributed to patent US20070014739A1.

- method-description: Bladder concentrations in rats (pharmacokinetic study)
- measurement-setup: rat, in vivo, po, 50 mg/kg

{"columns": ["chemical-smiles", "concentration at 24 h"],
 "data": [
  ["C[C@H]1[C@H](C)CC[C@]2(C(=O)O)CC[C@]3(C)C(=CC[C@@H]4[C@@]5(C)C[C@@H](O)[C@H](O)[C@@](C)(CO)[C@@H]5CC[C@]43C)[C@H]12", "~30000 ng/g"]
]}

###

- method-description: Bladder concentrations in rats (pharmacokinetic study)
- measurement-setup: rat, in vivo; rats, 50 mg/kg oral single bolus in 50% Labrasol, at 24 hours; read-out: Concentrations in the bladder

{"columns": ["compound", "concentration at 24 h"],
 "data": [
  ["C[C@H]1[C@H](C)CC[C@]2(C(=O)O)CC[C@]3(C)C(=CC[C@@H]4[C@@]5(C)C[C@@H](O)[C@H](O)[C@@](C)(CO)[C@@H]5[C@H](O)C[C@]43C)[C@H]12 [Madecassic acid]", "~30000 ng/g"]
]}
